experiment: Turbidimetric aqueous solubility; assay type: physicochemical; details: buffered aqueous solution (PBS pH 7.4, 1% DMSO), 37 °C, 2 h
Each item that follows carries a reported Estimated Precipitation Range, Upper Bound.

Consider the following illustrative entries.
Cl.NCC(c1ccc(OC(F)(F)F)cc1)c1ccc(OC(F)(F)F)cc1; 100 µM
c1cc2ccc3cccc4ccc(c1)c2c34 [pyrene, reference compound]; 10 µM
CC(C)(C)c1ccc(C(CN)c2ccc(F)cc2)cc1.Cl (centres unmarked); >100 µM
COC(=O)C1=C(C)NC(C)=C(C(=O)OCCN(C)Cc2ccccc2)C1c1cccc([N+](=O)[O-])c1 (centres unmarked) [nicardipine, reference compound]; 30 µM
CC(C)(C)c1ccc(C(CN)c2ccc(C(C)(C)C)cc2)cc1.Cl; 6.5 µM

What Estimated Precipitation Range, Upper Bound value was documented for this compound, CC(C)(C)c1ccc(C(CN)c2ccc(SC(F)(F)F)cc2)cc1.Cl (centres unmarked) ?
20 µM

And then CC(C)(C)c1ccc(C(CN)c2ccc(OC(F)(F)F)cc2)cc1 (centres unmarked) , what is it?
100 µM

And then CC(C)(C)c1ccc(C(CN)c2ccc(Cl)cc2)cc1 (centres unmarked) , what is it?
>100 µM
